All figures here come from patent US5684013A.

- Study target: geranylgeranyl protein transferase (GGPT) I (Rattus norvegicus, UniProt P53610+Q04631)
- Construct: were partially purified from rat brain by ammonium sulfate fractionation; from tissue; host or cells: rat brain
- Experiment summary: In vitro enzyme assay: inhibition of geranylgeranyl protein transferase (GGPT) I, Ras-CVLL as acceptor
- Type: biochemical
- Condition: Table 3, unit printed in the cell
Outcome measure: pIC50
Units for pIC50: none; it is -log10 of a concentration expressed in mol/L.

Measured pIC50, O=S(=O)(c1ccccc1)N1CCC/C(=C2\c3ccc(Cl)cc3CCc3cccnc32)C1 [Compound E-2E] : 5.13

---

Let's look at some compounds and their measured IC50.
- Study target: farnesyl protein transferase (FPT) (Rattus norvegicus, UniProt Q02293+Q04631)
- Construct: were partially purified from rat brain by ammonium sulfate fractionation; from tissue; host or cells: rat brain
- Experiment summary: In vitro enzyme assay: inhibition of farnesyl protein transferase (FPT), Ras-CVLS farnesylation
- Type: biochemical
- Condition: Table 2; read-out: FPT IC50

Measured IC50, O=C(CCc1ccccc1)N1CCC/C(=C2/c3ccc(Cl)cc3CCc3cccnc32)C1 : > 45 µM

Measured IC50, O=C(Cc1ccncc1)N1CCC/C(=C2/c3ccc(Cl)cc3CCc3cccnc32)C1 : > 14 µM

Measured IC50, O=C(Sc1ccccc1)N1CCC/C(=C2\c3ccc(Cl)cc3CCc3cccnc32)C1 : > 13 µM

Measured IC50, O=C(Cc1cccnc1)N1CCC/C(=C2\c3ccc(Cl)cc3CCc3cccnc32)C1 : 7.8 µM

---

- Study target: farnesyl protein transferase (FPT) (Rattus norvegicus, UniProt Q02293+Q04631)
- Construct: were partially purified from rat brain by ammonium sulfate fractionation; from tissue; host or cells: rat brain
- Experiment summary: In vitro enzyme assay: inhibition of farnesyl protein transferase (FPT), Ras-CVLS farnesylation
- Assay type: biochemical
- Condition: Table 2; read-out: FPT IC50
- Method: 1. In vitro enzyme assays: Inhibition of farnesyl protein transferase and geranylgeranyl protein transferase. […] Several methods for measuring farnesyl protein transferase activity have been described (Reiss et al 1990, Cell 62: 81; Schaber et al 1990, J. Biol. Chem. 265: 14701; Manne et al 1990, PNAS 87: 7541; and Barbacid & Manne 1993, U.S. Pat. No. 5,185,248). […] Filter mats were washed once with 6% TCA, 2% SDS and radioactivity was measured in a Wallac 1204 Betaplate BS liquid scintillation counter. […]
The label is Yes for IC50 below 3 µM and No for IC50 equal to or exceeding 3 µM.

Strictly below 3 µM: is that where IC50 of O=S(=O)(c1cccnc1)N1CCC/C(=C2/c3ccc(Cl)cc3CCc3cccnc32)C1 sits?
No

Strictly below 3 µM: is that where IC50 of O=[N+]([O-])c1ccc(S(=O)(=O)N2CCC/C(=C3/c4ccc(Cl)cc4CCc4cccnc43)C2)cc1 sits?
No

Strictly below 3 µM: is that where IC50 of O=S(=O)(c1ccccc1)N1CC/C(=C2\c3ccc(Cl)cc3CCc3cccnc32)C1 sits?
Yes

Strictly below 3 µM: is that where IC50 of O=S(=O)(c1cccs1)N1CC/C(=C2\c3ccccc3CCc3cccnc32)C1 sits?
No

Strictly below 3 µM: is that where IC50 of O=C(Cc1ccncc1)N1CCC/C(=C2\c3ccc(Cl)cc3CCc3cccnc32)C1 sits?
No

Strictly below 3 µM: is that where IC50 of O=C(CSc1ccncc1)N1CC/C(=C2/c3ccc(Cl)cc3CCc3cccnc32)C1 sits?
No

Strictly below 3 µM: is that where IC50 of O=S(=O)(c1ccccc1)N1CCC/C(=C2/c3ccc(Cl)cc3CCc3cccnc32)C1 sits?
No

Strictly below 3 µM: is that where IC50 of O=S(=O)(c1ccccc1)N1CC/C(=C2\c3ccccc3CCc3cccnc32)C1 sits?
Yes
